meta.source: patent US20080070867A1

Molecular target: Human recombinant PTP-1B (Homo sapiens)
Construct: Human recombinant PTP-1B, containing amino acids 1-321, fused to GST enzyme; GST (glutathione S-transferase)
Sequence (P18031 1-321): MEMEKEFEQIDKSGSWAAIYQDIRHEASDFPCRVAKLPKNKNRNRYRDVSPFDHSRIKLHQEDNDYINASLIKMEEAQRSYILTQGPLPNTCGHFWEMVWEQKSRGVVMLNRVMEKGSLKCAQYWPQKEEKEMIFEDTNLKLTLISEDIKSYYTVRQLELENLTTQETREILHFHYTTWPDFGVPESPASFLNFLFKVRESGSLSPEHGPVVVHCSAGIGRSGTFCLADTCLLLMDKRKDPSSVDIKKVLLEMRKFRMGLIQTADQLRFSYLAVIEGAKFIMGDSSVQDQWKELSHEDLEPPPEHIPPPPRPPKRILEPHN
Test: Assay for PTP-1B Activity (pNPP substrate)
Details: human recombinant PTP-1B (1-321) GST fusion, 2 mM pNPP, pH 7.4, 30° C., 20 min; read-out: Activity Code (IC50 range)
Catalogue of IC50 readings, one per entry.
ENDPOINT: IC50

- MOLECULE: "CCOC(=O)n1cc(-c2ccc(C(=O)OC)cc2)n(Cc2ccc(C(F)(F)P(=O)(O)OCOC(=O)C(C)(C)C)c(Br)c2)c1=O"
  ENDPOINT: "IC50"
  MEASURED VALUE: "> 25 µM"
- MOLECULE: "CCOC(=O)n1cc(-c2ccc(C(=O)OC)cc2)n(Cc2ccc(C(F)(F)P(=O)(O)O)c(Br)c2)c1=O"
  ENDPOINT: "IC50"
  MEASURED VALUE: "0.25 to 2.5 µM"
- MOLECULE: "CC(C)(C)C(=O)OCOC(=O)c1ccc(-c2cn(Cc3ccccc3)c(=O)n2Cc2ccc(C(F)(F)P(=O)(O)OCOC(=O)C(C)(C)C)c(Br)c2)cc1"
  ENDPOINT: "IC50"
  MEASURED VALUE: "2.5 to 25 µM"
- MOLECULE: "COC(=O)c1ccc(-c2cn(Cc3ccccc3)c(=O)n2Cc2ccc(C(F)(F)P(=O)(O)O)c(Cl)c2)cc1"
  ENDPOINT: "IC50"
  MEASURED VALUE: "0.25 to 2.5 µM"
- MOLECULE: "CS(=O)(=O)c1ccc(-c2c[nH]c(=O)n2Cc2ccc(C(F)(F)P(=O)(O)O)c(Br)c2)cc1"
  ENDPOINT: "IC50"
  MEASURED VALUE: "0.25 to 2.5 µM"
- MOLECULE: "O=C(O)c1ccc(-c2cn(C3CC3)c(=O)n2Cc2ccc(C(F)(F)P(=O)(O)O)c(Br)c2)cc1"
  ENDPOINT: "IC50"
  MEASURED VALUE: "0.25 to 2.5 µM"
- MOLECULE: "COC(=O)c1ccc(Cn2cc(-c3ccccc3)n(Cc3ccc(C(F)(F)P(=O)(O)O)c(Br)c3)c2=O)cc1"
  ENDPOINT: "IC50"
  MEASURED VALUE: "0.1 to 0.249 µM"
- MOLECULE: "O=C(O)c1ccc(-c2cn(CCc3ccccc3)c(=O)n2Cc2ccc(C(F)(F)P(=O)(O)O)c(Br)c2)cc1"
  ENDPOINT: "IC50"
  MEASURED VALUE: "0.25 to 2.5 µM"
- MOLECULE: "CC(C)OC(=O)OC(C)OP(=O)(O)C(F)(F)c1ccc(Cn2c(-c3ccc(Cl)cc3)cn(Cc3ccccc3)c2=O)cc1Br (stereo not shown)"
  ENDPOINT: "IC50"
  MEASURED VALUE: "2.5 to 25 µM"
- MOLECULE: "COC(=O)c1ccc(-c2cn(CCc3ccccc3)c(=O)n2Cc2ccc(C(F)(F)P(=O)(O)O)c(Br)c2)cc1"
  ENDPOINT: "IC50"
  MEASURED VALUE: "0.25 to 2.5 µM"
- MOLECULE: "O=c1n(Cc2ccccc2)ccn1Cc1ccc(C(F)(F)P(=O)(O)O)c(Br)c1"
  ENDPOINT: "IC50"
  MEASURED VALUE: "2.5 to 25 µM"
- MOLECULE: "O=C(O)c1ccc(-c2cn(Cc3ccc(C(F)(F)P(=O)(O)O)c(Br)c3)c(=O)n2Cc2ccccc2)cc1"
  ENDPOINT: "IC50"
  MEASURED VALUE: "0.25 to 2.5 µM"
- MOLECULE: "O=c1n(Cc2ccccc2)cc(-c2ccsc2)n1Cc1ccc(C(F)(F)P(=O)(O)O)c(Br)c1"
  ENDPOINT: "IC50"
  MEASURED VALUE: "0.25 to 2.5 µM"
- MOLECULE: "N#Cc1cccc(-c2cn(Cc3ccccc3)c(=O)n2Cc2ccc(C(F)(F)P(=O)(O)O)c(Br)c2)c1"
  ENDPOINT: "IC50"
  MEASURED VALUE: "0.25 to 2.5 µM"
- MOLECULE: "COC(=O)/C=C/c1ccc(-c2cn(C3CC3)c(=O)n2Cc2ccc(C(F)(F)P(=O)(O)O)c(Br)c2)cc1"
  ENDPOINT: "IC50"
  MEASURED VALUE: "< 0.099 µM"
- MOLECULE: "O=c1n(Cc2ccccc2)cc(-c2ccc(Cl)cc2)n1Cc1ccc(C(F)(F)P(=O)(O)O)c(Br)c1"
  ENDPOINT: "IC50"
  MEASURED VALUE: "0.1 to 0.249 µM"
- MOLECULE: "CCOC(=O)c1ccc(-n2ccn(Cc3ccc(C(F)(F)P(=O)(O)O)c(Br)c3)c2=O)cc1"
  ENDPOINT: "IC50"
  MEASURED VALUE: "0.25 to 2.5 µM"
- MOLECULE: "O=C(O)c1ccc(-c2cn(Cc3ccccn3)c(=O)n2Cc2ccc(C(F)(F)P(=O)(O)O)c(Br)c2)cc1"
  ENDPOINT: "IC50"
  MEASURED VALUE: "0.25 to 2.5 µM"
- MOLECULE: "CS(=O)(=O)c1ccc(Cn2ccn(Cc3ccc(C(F)(F)P(=O)(O)O)c(Br)c3)c2=O)cc1"
  ENDPOINT: "IC50"
  MEASURED VALUE: "0.25 to 2.5 µM"
- MOLECULE: "COC(=O)c1ccc(-c2cn(Cc3ccc(C(F)(F)P(=O)(O)O)c(Br)c3)c(=O)n2Cc2ccccc2)cc1"
  ENDPOINT: "IC50"
  MEASURED VALUE: "0.25 to 2.5 µM"
- MOLECULE: "CCOC(=O)n1cc(-c2ccc(S(C)(=O)=O)cc2)n(Cc2ccc(C(F)(F)P(=O)(O)O)c(Br)c2)c1=O"
  ENDPOINT: "IC50"
  MEASURED VALUE: "0.1 to 0.249 µM"
- MOLECULE: "CC(C)(C)C(=O)OCOP(=O)(O)C(F)(F)c1ccc(Cn2c(-c3ccc(C#N)cc3)cn(Cc3ccccc3)c2=O)cc1Br"
  ENDPOINT: "IC50"
  MEASURED VALUE: "2.5 to 25 µM"
- MOLECULE: "O=C(O)c1ccc(Cn2ccn(Cc3ccc(C(F)(F)P(=O)(O)O)c(Br)c3)c2=O)cc1"
  ENDPOINT: "IC50"
  MEASURED VALUE: "0.25 to 2.5 µM"
- MOLECULE: "CCn1cc(-c2ccc(C(=O)OC)cc2)n(Cc2ccc(C(F)(F)P(=O)(O)O)c(Br)c2)c1=O"
  ENDPOINT: "IC50"
  MEASURED VALUE: "0.1 to 0.249 µM"
- MOLECULE: "Cn1cc(-c2ccc(S(C)(=O)=O)cc2)n(Cc2ccc(C(F)(F)P(=O)(O)OCOC(=O)C(C)(C)C)c(Br)c2)c1=O"
  ENDPOINT: "IC50"
  MEASURED VALUE: "2.5 to 25 µM"
- MOLECULE: "CC(C)OC(=O)OC(C)OP(=O)(O)C(F)(F)c1ccc(Cn2c(-c3ccc(S(C)(=O)=O)cc3)cn(C)c2=O)cc1Br (stereo not shown)"
  ENDPOINT: "IC50"
  MEASURED VALUE: "> 25 µM"
- MOLECULE: "CCCCCCCCCCCCCCCCOCCCOP(=O)(O)C(F)(F)c1ccc(Cn2c(-c3ccc(S(C)(=O)=O)cc3)c[nH]c2=O)cc1Br"
  ENDPOINT: "IC50"
  MEASURED VALUE: "2.5 to 25 µM"
- MOLECULE: "Cn1cc(-c2ccc(S(C)(=O)=O)cc2)n(Cc2ccc(C(F)(F)P(=O)(O)O)c(Br)c2)c1=O"
  ENDPOINT: "IC50"
  MEASURED VALUE: "0.1 to 0.249 µM"
